Molecular target: Carnitine O-palmitoyltransferase 1, liver isoform (Rattus norvegicus)
Sequence (P32198 whole entry, canonical isoform): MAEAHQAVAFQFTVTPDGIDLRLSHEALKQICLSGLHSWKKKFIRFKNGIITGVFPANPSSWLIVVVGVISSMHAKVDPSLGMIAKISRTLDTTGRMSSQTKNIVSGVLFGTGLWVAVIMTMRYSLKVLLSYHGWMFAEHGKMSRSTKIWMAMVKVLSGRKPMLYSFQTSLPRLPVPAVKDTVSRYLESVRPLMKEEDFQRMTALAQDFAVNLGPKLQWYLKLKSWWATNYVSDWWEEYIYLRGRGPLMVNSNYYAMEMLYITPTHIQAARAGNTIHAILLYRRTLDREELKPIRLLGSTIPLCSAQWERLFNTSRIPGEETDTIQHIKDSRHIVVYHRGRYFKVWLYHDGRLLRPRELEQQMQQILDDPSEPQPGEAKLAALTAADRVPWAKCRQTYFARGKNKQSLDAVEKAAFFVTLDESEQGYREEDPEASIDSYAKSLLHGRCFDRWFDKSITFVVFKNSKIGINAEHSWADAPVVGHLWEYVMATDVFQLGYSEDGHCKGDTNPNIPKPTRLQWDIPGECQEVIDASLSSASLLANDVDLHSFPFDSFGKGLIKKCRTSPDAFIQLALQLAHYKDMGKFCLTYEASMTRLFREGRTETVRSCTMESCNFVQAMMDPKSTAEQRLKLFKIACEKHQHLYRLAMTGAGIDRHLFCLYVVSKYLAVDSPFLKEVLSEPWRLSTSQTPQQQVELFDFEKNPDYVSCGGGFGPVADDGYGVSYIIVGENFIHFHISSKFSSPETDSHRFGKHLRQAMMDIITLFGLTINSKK
Experiment: SUPPLEMENTARY: Inhibition of Carnitine palmitoyltransferase 1, liver isoform
Documented IC50 across a set of compounds
Provide the reading as a plain figure in nM.

Look over these answered cases.
smiles_repr=CC(=O)Nc1cccc(C#C[C@H]2CCCCN2C(=O)COc2ccccc2)c1 reported_result=191
smiles_repr=COc1ccc(Cl)cc1CN1C(=O)OC(C)(C)c2ccc(C(=O)Nc3ccc(C(=O)O)cc3)cc21 reported_result=96.8

Now for the compound whose IC50 we want.
Q: What does the data say about its IC50? Entry: CCCN(c1cc(C(=O)Nc2ccc(CC(=O)O)cc2)cc2c1OCO2)S(=O)(=O)c1cc(Cl)ccc1OC
A: 184
